- experiment.notes: Toxicity test, LD50 by Bliss method, oral gavage
- details: mouse, in vivo, mice, orally by gavage, confidence limit of 95% 772.5-1052.1 mg/kg, read-out: half-lethal dosage (LD50)
- Protocol: The confidence limit of 95% is 772.5-1052.1 mg/kg.
measure: LD50 (mg/kg)
Entry rule: numbers only, all in mg/kg.

Provide one value: measured LD50 of `CCCc1nn(C)c2c(=O)[nH]c(-c3cc(S(=O)(=O)N4C[C@@H](C)N[C@@H](C)C4)ccc3OCC)nc12`
902
